molecular target: T1, eukaryotically produced human IL-6 (Homo sapiens, UniProt P05231); assay: Surface plasmon resonance (Biacore), eukaryotically produced human IL-6 coated on CM5 chip; format: binding; details: euk; periplasmic fractions, 28A6 chain-shuffled
T1 construct: purchased Humanzyme HZ-1044; host or cells: Human Embryonic kidney cells
T1 sequence (P05231 30-212): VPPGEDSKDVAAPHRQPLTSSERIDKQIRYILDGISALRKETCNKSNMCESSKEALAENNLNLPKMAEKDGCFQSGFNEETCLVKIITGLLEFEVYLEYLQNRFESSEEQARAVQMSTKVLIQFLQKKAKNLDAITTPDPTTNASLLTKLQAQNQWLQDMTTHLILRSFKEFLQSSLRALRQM

molecule	unit_spec	kd
55E10g1: 28A6 chain-shuffled Fab, periplasmic fraction (antibody, V domains shown) VH: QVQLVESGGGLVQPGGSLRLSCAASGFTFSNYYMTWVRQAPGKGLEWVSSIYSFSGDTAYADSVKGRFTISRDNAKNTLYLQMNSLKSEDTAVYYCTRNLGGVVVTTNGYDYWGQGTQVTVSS VL: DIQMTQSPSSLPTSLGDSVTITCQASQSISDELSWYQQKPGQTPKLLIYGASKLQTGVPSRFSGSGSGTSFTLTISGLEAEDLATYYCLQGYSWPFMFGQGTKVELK	s⁻¹	5.59e-05
